test: Pharmacokinetic study after intratumoral injection (plasma, HPLC); assay type: in vivo, albino female rats; details: female, other: intratumoral injection; MTX 40 mg/kg, combined with 5-FU in saline, rat plasma; read-out: Cmax of MTX
Reported Endpoint: Cmax (ng/mL)
Record the value in ng/mL, omitting the unit from your answer.

For the compound CN(Cc1cnc2nc(N)nc(N)c2n1)c1ccc(C(=O)N[C@@H](CCC(=O)O)C(=O)O)cc1 [MTX, methotrexate] , report Cmax. 15200

---

experiment: Pharmacokinetic study after intratumoral injection (plasma, HPLC); type: in vivo, albino female rats; settings: female, rat, plasma, 100 mg/kg; sole administration of 5-FU in saline
Reported Endpoint: Tmax (h)
State the answer as a number, implicitly in h.

Determine its reported Tmax: "O=c1[nH]cc(F)c(=O)[nH]1" 1
